Source listed as the RNAGym collection of RNA variant scans (doi:10.1093/molbev/msab373).

B1: Azoarcus group I ribozyme (parent)
chain: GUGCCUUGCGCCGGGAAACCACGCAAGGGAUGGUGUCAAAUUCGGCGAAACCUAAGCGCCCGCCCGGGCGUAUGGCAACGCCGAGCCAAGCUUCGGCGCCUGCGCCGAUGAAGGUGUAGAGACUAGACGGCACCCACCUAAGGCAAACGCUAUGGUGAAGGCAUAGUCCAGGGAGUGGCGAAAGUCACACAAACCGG

- Variants of: B1
- assayDetails: reverse-splicing fitness (ratio to wild type); higher = more active; in vitro selection; Mg2+ level not given
Give reverse-splicing fitness for every item shown.
Give bare numbers.

Solved cases below.
A111C A120G A145G C169U U176A :: 0.0413
C82G A111G A120C A145G C150U U176A :: 0.0189
A111U A120G A145U C150G C169A U176A :: 0.0103
C82A A111G A120U C150U C169A U176C :: 0.00346
A111C C150G C169U U176G :: 0.00651
C82A A111C A120G A145C C150G C169U U176G :: 0.00551
C82A A111G A120U C150U C169G U176A :: 0.00869
A120G A145U C150G U176A :: 0.0351
C82G A120G A145G C169A U176G :: 0.00439
C82A A111C A120G C169A U176A :: 0.0155

Request the reported reverse-splicing fitness associated with C82A A111C A120C C150A C169U U176A
0.0173
